Molecular target: Human recombinant adenosine A1 receptors (Homo sapiens, UniProt P30542)
Sequence (P30542 whole entry): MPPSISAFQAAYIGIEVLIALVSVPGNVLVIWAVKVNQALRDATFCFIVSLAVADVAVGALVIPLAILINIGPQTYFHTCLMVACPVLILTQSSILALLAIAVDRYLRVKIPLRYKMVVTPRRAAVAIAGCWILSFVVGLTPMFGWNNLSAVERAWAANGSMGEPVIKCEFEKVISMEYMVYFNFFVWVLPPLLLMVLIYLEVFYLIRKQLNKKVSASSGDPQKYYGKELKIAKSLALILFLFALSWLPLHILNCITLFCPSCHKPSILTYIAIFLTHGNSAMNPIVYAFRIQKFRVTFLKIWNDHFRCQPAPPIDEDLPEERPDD
Test: Human adenosine A1 receptor binding assay ([3H]DPCPX)
Settings: membranes of CHO-K1 cells, 1 nM [3H]DPCPX, 90 minutes at 25° C.; read-out: hAl Ki
reported.metric: Ki

N#Cc1cncc(-c2nc(N)nc3c2cnn3Cc2c(F)cccc2F)c1 [Compound 233] | 1000 to 10000 nM
N#Cc1cccc(-c2nc(N)nc3c2cnn3Cc2c(F)cccc2F)n1 [Compound 231] | 100 to 1000 nM
N#Cc1cccc(-c2nc(N)nc3c2cnn3Cc2c(F)cc(N)cc2F)n1 [Compound 223] | 100 to 1000 nM
Cc1cc(Cn2ncc3c(-c4ccnc(C#N)c4)nc(N)nc32)ccc1N [Compound 230] | > 10000 nM
CCn1c(=O)c2c(nc(/C=C/c3ccc(OC)c(OC)c3)n2C)n(CC)c1=O [Istradefylline, reference compound] | 100 to 1000 nM
Cc1cc(Cn2ncc3c(-c4cccc(C#N)c4)nc(N)nc32)ccc1N [Compound 204] | 100 to 1000 nM
N#Cc1cccc(-c2nc(N)nc3c2cnn3Cc2ccc(N)cc2F)c1 [Compound 209] | 100 to 1000 nM
N#Cc1cc(-c2nc(N)nc3c2cnn3Cc2ccc(N)cc2F)ccn1 [Compound 222] | > 10000 nM
N#Cc1ccnc(-c2nc(N)nc3c2cnn3Cc2ccc(N)cc2)c1 [Compound 216] | 1000 to 10000 nM
N#Cc1cccc(-c2nc(N)nc3c2cnn3Cc2ccc(N)cc2F)n1 [Compound 219] | 100 to 1000 nM
Cc1cc(Cn2ncc3c(-c4cccc(C#N)n4)nc(N)nc32)ccc1N [Compound 227] | 100 to 1000 nM
N#Cc1cccc(-c2nc(N)nc3c2cnn3Cc2ccc(N)c(C(F)(F)F)c2)c1F [Compound 211] | ≤ 100 nM
N#Cc1ccnc(-c2nc(N)nc3c2cnn3Cc2ccc(N)c(C(F)(F)F)c2)c1 [Compound 235] | 100 to 1000 nM
N#Cc1cncc(-c2nc(N)nc3c2cnn3Cc2ccc(N)cc2)c1 [Compound 217] | > 10000 nM
N#Cc1cccc(-c2nc(N)nc3c2cnn3Cc2c(F)cc(N)cc2F)c1 [Compound 207] | ≤ 100 nM
N#Cc1cc(-c2nc(N)nc3c2cnn3Cc2ccc(N)cc2)ccn1 [Compound 218] | 1000 to 10000 nM
N#Cc1cccc(-c2nc(N)nc3c2cnn3Cc2ccc(N)cc2F)c1F [Compound 203] | ≤ 100 nM
N#Cc1cccc(-c2nc(N)nc3c2cnn3Cc2c(F)cccc2F)c1F [Compound 213] | ≤ 100 nM
Cc1cc(Cn2ncc3c(-c4cccc(C#N)c4F)nc(N)nc32)ccc1N [Compound 206] | ≤ 100 nM
N#Cc1ccnc(-c2nc(N)nc3c2cnn3Cc2ccc(N)cc2F)c1 [Compound 220] | 100 to 1000 nM

###

Molecular target: Human recombinant adenosine A1 receptors (Homo sapiens)
Experiment: Human adenosine A1 receptor binding assay ([3H]DPCPX)
Settings: membranes of CHO-K1 cells, 1 nM [3H]DPCPX, 90 minutes at 25° C.; read-out: hAl Ki
List of Ki values.
reported.metric: Ki

N#Cc1ccnc(-c2nc(N)nc3c2cnn3Cc2c(F)cc(N)cc2F)c1 [Compound 224] | 0.1 to 1 µM
N#Cc1cccc(-c2nc(N)nc3c2cnn3Cc2ccc(N)c(C(F)(F)F)c2)c1 [Compound 210] | ≤ 0.1 µM
N#Cc1cccc(-c2nc(N)nc3c2cnn3Cc2ccc(N)cc2)n1 [Compound 215] | 0.1 to 1 µM
N#Cc1cc(-c2nc(N)nc3c2cnn3Cc2c(F)cc(N)cc2F)ccn1 [Compound 226] | > 10 µM
N#Cc1cncc(-c2nc(N)nc3c2cnn3Cc2c(F)cc(N)cc2F)c1 [Compound 225] | 1 to 10 µM

All values here come from patent US11806350B2.
